experiment: Plasma pharmacokinetics after oral dosing in NRG mice; assay type: in vivo; conditions: mouse; NRG mice plasma, 75 mg/kg PO x 1
outcome measure: CL/F (mL/min/kg)
Only the number, expressed in mL/min/kg, is required.

Request: Could you share which CL/F value was measured for C=CCO/N=C(/C[C@H]1O[C@@H]2O[C@@]3(C)CC[C@H]4[C@H](C)CC[C@@H]([C@H]1C)[C@@]24OO3)[C@H]1O[C@@H]2O[C@@]3(C)CC[C@H]4[C@H](C)CC[C@@H]([C@H]1C)[C@@]24OO3 ?
Result: 86.7

----------
assay: Plasma pharmacokinetics after oral dosing in NRG mice; type: in vivo; conditions: mouse; NRG mice plasma, 75 mg/kg PO x 1
outcome measure: Tmax (h)
Only the number, expressed in h, is required.

Request: Could you share which Tmax value was measured for C=CCO/N=C(/C[C@H]1O[C@@H]2O[C@@]3(C)CC[C@H]4[C@H](C)CC[C@@H]([C@H]1C)[C@@]24OO3)[C@H]1O[C@@H]2O[C@@]3(C)CC[C@H]4[C@H](C)CC[C@@H]([C@H]1C)[C@@]24OO3 [ART631] ?
Result: 1.5

----------
assay: Plasma pharmacokinetics after oral dosing in NRG mice; assay type: in vivo; conditions: mouse, 15 mg/kg/day; NRG mice plasma, 15 mg/kg/d PO qd x 5 alone, after 5th dose; read-out: Vz/F
outcome measure: Vd/F (L/kg)
Only the number, expressed in L/kg, is required.

Request: Could you share which Vd/F value was measured for C=CCO/N=C(/C[C@H]1O[C@@H]2O[C@@]3(C)CC[C@H]4[C@H](C)CC[C@@H]([C@H]1C)[C@@]24OO3)[C@H]1O[C@@H]2O[C@@]3(C)CC[C@H]4[C@H](C)CC[C@@H]([C@H]1C)[C@@]24OO3 [ART631] ?
Result: 21.5

----------
assay: Maximum tolerated dose in NRG mice; assay type: in vivo; settings: mouse, in vivo; NRG mice, PO (gavage), single dose
outcome measure: MTD (mg/kg)
Only the number, expressed in mg/kg, is required.

Request: Could you share which MTD value was measured for C=CCO/N=C(/C[C@H]1O[C@@H]2O[C@@]3(C)CC[C@H]4[C@H](C)CC[C@@H]([C@H]1C)[C@@]24OO3)[C@H]1O[C@@H]2O[C@@]3(C)CC[C@H]4[C@H](C)CC[C@@H]([C@H]1C)[C@@]24OO3 [ART631] ?
Result: 75

----------
experiment: Plasma pharmacokinetics after oral dosing in NRG mice; assay type: in vivo; details: mouse, 15 mg/kg/day; NRG mice plasma, 15 mg/kg/d PO qd x 5 alone, after 5th dose; read-out: T1/2 (converted)
outcome measure: half-life
The answer should read as a number with its unit following.

Request: Could you share which half-life value was measured for C=CCO/N=C(/C[C@H]1O[C@@H]2O[C@@]3(C)CC[C@H]4[C@H](C)CC[C@@H]([C@H]1C)[C@@]24OO3)[C@H]1O[C@@H]2O[C@@]3(C)CC[C@H]4[C@H](C)CC[C@@H]([C@H]1C)[C@@]24OO3 [ART631] ?
Result: 1.7 h

----------
assay: Plasma pharmacokinetics after oral dosing in NRG mice; type: in vivo; conditions: mouse, 15 mg/kg/day; NRG mice plasma, 15 mg/kg/d PO qd x 5 alone, after 5th dose
outcome measure: AUC(0-t) (µM·h)
Only the number, expressed in µM·h, is required.

Request: Could you share which AUC(0-t) value was measured for C=CCO/N=C(/C[C@H]1O[C@@H]2O[C@@]3(C)CC[C@H]4[C@H](C)CC[C@@H]([C@H]1C)[C@@]24OO3)[C@H]1O[C@@H]2O[C@@]3(C)CC[C@H]4[C@H](C)CC[C@@H]([C@H]1C)[C@@]24OO3 ?
Result: 2.74

----------
experiment: Plasma pharmacokinetics after oral dosing in NRG mice; format: in vivo; conditions: mouse, 15 mg/kg/day; NRG mice plasma, 15 mg/kg/d PO qd x 5 alone, after 5th dose
outcome measure: Cmax (nM)
Only the number, expressed in nM, is required.

Request: Could you share which Cmax value was measured for C=CCO/N=C(/C[C@H]1O[C@@H]2O[C@@]3(C)CC[C@H]4[C@H](C)CC[C@@H]([C@H]1C)[C@@]24OO3)[C@H]1O[C@@H]2O[C@@]3(C)CC[C@H]4[C@H](C)CC[C@@H]([C@H]1C)[C@@]24OO3 [ART631] ?
Result: 935

----------
test system: THP1; test: alamarBlue growth inhibition, THP1; assay type: cell-based; details: Homo sapiens, THP-1, THP1, 48h, mean of 2 independent assays ± SD
outcome measure: IC50 (µM)
Only the number, expressed in µM, is required.

Request: Checklist item: IC50 tested on THP1, entry C[C@@H]1CCC2[C@@H](C)[C@@H](CC(COP(=O)(Oc3ccccc3)Oc3ccccc3)C[C@H]3O[C@@H]4O[C@@]5(C)CCC6[C@H](C)CCC([C@H]3C)[C@]64OO5)O[C@@H]3O[C@@]4(C)CCC1[C@@]23OO4 (stereo partly shown) [ART838, reference compound] , value?
Result: 0.045

Here's the next entry for you.
Request: Checklist item: IC50 tested on THP1, entry C=CCO/N=C(/C[C@H]1O[C@@H]2O[C@@]3(C)CC[C@H]4[C@H](C)CC[C@@H]([C@H]1C)[C@@]24OO3)[C@H]1O[C@@H]2O[C@@]3(C)CC[C@H]4[C@H](C)CC[C@@H]([C@H]1C)[C@@]24OO3 [ART631] , value?
Result: 0.042

----------
assay: Plasma pharmacokinetics after oral dosing in NRG mice; assay type: in vivo; settings: mouse; NRG mice plasma, 15 mg/kg/d PO qd x 5 in SAV (SOR 30 mg/kg/d, VEN 150 mg/kg/d), after 5th dose; read-out: Vz/F
outcome measure: Vd/F (L/kg)
Only the number, expressed in L/kg, is required.

Request: Could you share which Vd/F value was measured for C=CCO/N=C(/C[C@H]1O[C@@H]2O[C@@]3(C)CC[C@H]4[C@H](C)CC[C@@H]([C@H]1C)[C@@]24OO3)[C@H]1O[C@@H]2O[C@@]3(C)CC[C@H]4[C@H](C)CC[C@@H]([C@H]1C)[C@@]24OO3 ?
Result: 21.3

----------
assay: Plasma pharmacokinetics after oral dosing in NRG mice; format: in vivo; conditions: mouse; NRG mice plasma, 75 mg/kg PO x 1
outcome measure: AUC(0-t) (µM·h)
Only the number, expressed in µM·h, is required.

Request: Could you share which AUC(0-t) value was measured for C=CCO/N=C(/C[C@H]1O[C@@H]2O[C@@]3(C)CC[C@H]4[C@H](C)CC[C@@H]([C@H]1C)[C@@]24OO3)[C@H]1O[C@@H]2O[C@@]3(C)CC[C@H]4[C@H](C)CC[C@@H]([C@H]1C)[C@@]24OO3 ?
Result: 22.9
